TARGET_ENTITY: HIV-1 Env of isolate MGRM-G-011 (subtype G), on pseudovirus (HIV-1)
EXPERIMENT_SUMMARY: cell-based or functional assay
MEASUREMENT_KIND: IC50 (µg/mL), neutralization of pseudovirus

BINDER: PGT-131 (antibody, V domains shown) VH: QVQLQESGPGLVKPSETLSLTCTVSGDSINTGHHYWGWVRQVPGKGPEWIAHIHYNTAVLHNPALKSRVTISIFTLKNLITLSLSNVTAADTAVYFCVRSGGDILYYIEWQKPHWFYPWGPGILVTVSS VL: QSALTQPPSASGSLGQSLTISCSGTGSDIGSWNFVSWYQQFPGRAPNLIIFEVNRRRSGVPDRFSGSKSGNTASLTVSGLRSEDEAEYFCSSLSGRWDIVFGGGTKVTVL
VALUE_MEASURED: > 50 µg/mL
//
BINDER: PGT-130 (antibody, V domains shown) VH: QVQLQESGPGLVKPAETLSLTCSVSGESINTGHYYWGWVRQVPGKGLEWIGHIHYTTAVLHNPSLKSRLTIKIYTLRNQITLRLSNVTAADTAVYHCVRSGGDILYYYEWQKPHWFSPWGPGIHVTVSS VL: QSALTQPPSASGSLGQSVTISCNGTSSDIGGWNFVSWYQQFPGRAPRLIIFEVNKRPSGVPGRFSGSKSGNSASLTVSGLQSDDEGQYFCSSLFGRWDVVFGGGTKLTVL
VALUE_MEASURED: > 50 µg/mL
//
BINDER: PGT-136 (antibody, V domains shown) VH: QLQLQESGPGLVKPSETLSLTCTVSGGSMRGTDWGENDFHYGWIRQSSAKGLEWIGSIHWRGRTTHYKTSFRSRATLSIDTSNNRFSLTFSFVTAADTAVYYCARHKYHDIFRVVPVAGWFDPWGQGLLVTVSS VL: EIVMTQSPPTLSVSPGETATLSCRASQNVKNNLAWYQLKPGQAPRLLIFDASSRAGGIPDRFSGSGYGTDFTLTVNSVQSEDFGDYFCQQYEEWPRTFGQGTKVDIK
VALUE_MEASURED: > 50 µg/mL
